Molecular target: UniProt P36897
Sequence (P36897 34-503): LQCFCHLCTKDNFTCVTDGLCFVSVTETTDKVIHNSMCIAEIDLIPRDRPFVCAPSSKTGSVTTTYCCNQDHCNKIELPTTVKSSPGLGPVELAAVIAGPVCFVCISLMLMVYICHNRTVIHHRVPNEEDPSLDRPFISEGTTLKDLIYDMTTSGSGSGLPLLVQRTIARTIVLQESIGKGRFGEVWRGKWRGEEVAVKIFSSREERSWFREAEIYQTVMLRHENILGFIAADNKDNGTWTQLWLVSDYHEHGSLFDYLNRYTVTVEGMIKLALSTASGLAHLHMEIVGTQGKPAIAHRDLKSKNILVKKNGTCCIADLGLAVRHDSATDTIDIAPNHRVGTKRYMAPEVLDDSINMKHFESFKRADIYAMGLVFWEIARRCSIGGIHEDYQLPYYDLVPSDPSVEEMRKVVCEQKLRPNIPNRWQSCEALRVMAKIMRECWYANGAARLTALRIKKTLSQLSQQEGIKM
Assay: TGFβ R1 autophosphorylation protocol (33P-ATP, phosphocellulose filter plate)
Format: biochemical
Conditions: 10 uM ATP, 170 nM TGFβ R1, room temperature 20 minutes, read-out: IC50 for Kinase Inhibition
Readout kind: IC50 (nM)
The reply should contain only the number, in nM.

Q. Bench note: what IC50 did COc1cnc(-c2cc(Cl)ccc2F)nc1Nc1ccncc1C(=O)N1CC[C@@H](F)C1 [Compound 241] show?
A. 127

Q. Bench note: what IC50 did CC(C)c1cnc(-c2cc(Cl)ccc2F)nc1Nc1ccncc1C(=O)NCCCN1CCC[C@@H]1C(=O)N1CCCC1 [Compound 180] show?
A. 5

Q. Bench note: what IC50 did CC(C)c1cnc(-c2cc(Cl)ccc2F)nc1Nc1ccncc1C(=O)N[C@H]1CCC[C@@H]1O [Compound 247] show?
A. 40

Q. Bench note: what IC50 did COc1cnc(-c2cc(Cl)ccc2F)nc1Nc1ccncc1C(=O)NCCCNS(C)(=O)=O [Compound 237] show?
A. 63
